# measured on: binding partner of C5A (XPA23)
# test description: Biacore
test readout: fold difference in affinity vs original (fold)
One number for each entry, in fold.

Consider the worked cases shown below.
binder | fold difference in affinity vs original / fold
C5A (XPA23) VH K31I (antibody, V domains shown) VH: EVQLLESGGGLVQPGGSLRLSCAASGFTFSIYFMFWVRQAPGKGLEWVSVISPSGGMTRYADSVKGRFTISRDNSKNTLYLQMNSLRAEDTAVYYCARVGYGGNSDYWGQGTLVTVSS VL: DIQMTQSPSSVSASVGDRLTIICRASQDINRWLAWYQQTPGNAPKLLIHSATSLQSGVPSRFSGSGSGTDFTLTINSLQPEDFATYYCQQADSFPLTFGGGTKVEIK | 0.74
C5A (XPA23) VH S54A (antibody, V domains shown) VH: EVQLLESGGGLVQPGGSLRLSCAASGFTFSKYFMFWVRQAPGKGLEWVSVISPAGGMTRYADSVKGRFTISRDNSKNTLYLQMNSLRAEDTAVYYCARVGYGGNSDYWGQGTLVTVSS VL: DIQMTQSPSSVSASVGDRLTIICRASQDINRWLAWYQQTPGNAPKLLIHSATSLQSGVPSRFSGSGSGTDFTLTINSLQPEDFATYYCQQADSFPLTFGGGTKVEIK | 1

Turning to the following binder.
So for C5A (XPA23) VH V50I (antibody, V domains shown) VH: EVQLLESGGGLVQPGGSLRLSCAASGFTFSKYFMFWVRQAPGKGLEWVSIISPSGGMTRYADSVKGRFTISRDNSKNTLYLQMNSLRAEDTAVYYCARVGYGGNSDYWGQGTLVTVSS VL: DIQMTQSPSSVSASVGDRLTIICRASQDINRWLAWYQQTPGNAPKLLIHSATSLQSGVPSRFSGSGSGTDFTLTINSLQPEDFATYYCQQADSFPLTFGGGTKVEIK , the logged fold difference in affinity vs original turned out to be 0.1
